- Test system: NEP
- Experiment Description: Degradation of Met-enkephalin incubated with NEP alone (without inhibitor)
- Type: in vitro ADME, porcine
- Conditions Used: pig, NEP enzyme extracted from porcine kidney, Met-enkephalin 0.0413 mM, NEP 5.687 nM, Tris–HCl 50 mM pH 7.4, 37 °C, 0–120 min, RP-HPLC, mean ± SEM, triplicate, read-out: t1/2, half-life of Met-enkephalin incubated with NEP alone
Assay Endpoint: half-life (min)
Number in min, nothing else.

Consider the compound shown here: CSCC[C@H](NC(=O)[C@H](Cc1ccccc1)NC(=O)CNC(=O)CNC(=O)[C@@H](N)Cc1ccc(O)cc1)C(=O)O [Met-enkephalin, Met-enkephalin (Tyr–Gly–Gly–Phe–Met)] What is its recorded half-life?
27
